# ASSAY PROTOCOL: Plasma level data at a dose of 20mg/kg, po after 6 hr
# Type: ADME, organism-based
# SETTINGS: read-out: Plasma level
REPORTED METRIC: concentration at 6 h

Can you look up the measured concentration at 6 h of CC(C)=CCc1c(O)n(Cc2ccccc2)c2nc3c(c(=O)n(C)c(=O)n3C)n2c1=O for me?
37000 ng/mL

----------
# ASSAY PROTOCOL: Plasma level data at a dose of 36 mg/kg, iv after 12 hr
# Type: ADME, organism-based
# Set-up: dose 36 mg/kg, route intravenous
# SETTINGS: read-out: Plasma level
REPORTED METRIC: concentration at 12 h (µg/mL)
// return numeric value only (unit: µg/mL, not printed)

Can you look up the measured concentration at 12 h of CCCc1c(O)n(Cc2ccc(F)cc2)c2nc3c(c(=O)n(C)c(=O)n3C)n2c1=O for me?
88.3

----------
# ASSAY PROTOCOL: Plasma level data at a dose of 20 mg/kg, po after 1 hr
# Format: ADME, organism-based
# Set-up: dose 20 mg/kg, route oral
# SETTINGS: read-out: Plasma level
REPORTED METRIC: concentration at 1 h

Can you look up the measured concentration at 1 h of CC(C)=CCc1c(O)n(Cc2ccccc2)c2nc3c(c(=O)n(C)c(=O)n3C)n2c1=O for me?
17300 ng/mL

----------
# ASSAY PROTOCOL: Plasma level data at a dose of 20mg/kg, po after 2 hr
# Format: ADME, organism-based
# SETTINGS: read-out: Plasma level
REPORTED METRIC: concentration at 2 h (ng/mL)
// return numeric value only (unit: ng/mL, not printed)

Can you look up the measured concentration at 2 h of CC(C)=CCc1c(O)n(Cc2ccccc2)c2nc3c(c(=O)n(C)c(=O)n3C)n2c1=O for me?
21900

----------
# Test system: Rattus norvegicus
# ASSAY PROTOCOL: Tested in vivo for antiinflammatory activity against chronic adjuvant arthritic rat by prophylactic inhibition 2 degree paw after peroral administration of 9 mg/kg of dose
# Type: functional
# SETTINGS: route oral
inhibition in vivo at 9 mg/kg vs 40%: at or above is True, below is False.

Reference set (3 entries):
Can CCCc1c(O)n(Cc2ccccc2)c2nc3c(c(=O)n(C)c(=O)n3C)n2c1=O be said to have inhibition in vivo at 9 mg/kg at or above 40%?
False

Can CCCc1c(O)n(Cc2ccc(F)cc2)c2nc3c(c(=O)n(C)c(=O)n3C)n2c1=O be said to have inhibition in vivo at 9 mg/kg at or above 40%?
True

Can CCCCc1c(O)n(Cc2ccc(F)cc2)c2nc3c(c(=O)n(C)c(=O)n3C)n2c1=O be said to have inhibition in vivo at 9 mg/kg at or above 40%?
True

Further cases:
Can CC(C)=CCc1c(O)n(Cc2ccc(F)cc2)c2nc3c(c(=O)n(C)c(=O)n3C)n2c1=O be said to have inhibition in vivo at 9 mg/kg at or above 40%?
False

Can CC(C)=CCc1c(O)n(Cc2ccccc2)c2nc3c(c(=O)n(C)c(=O)n3C)n2c1=O be said to have inhibition in vivo at 9 mg/kg at or above 40%?
True

Can CCCCc1c(O)n(Cc2ccccc2)c2nc3c(c(=O)n(C)c(=O)n3C)n2c1=O be said to have inhibition in vivo at 9 mg/kg at or above 40%?
True
